Values were extracted from ChEMBL document CHEMBL1154545.

Each entry below carries its recorded bioavailability.
# method: Bioavailability in rat at 9.8 mg/kg, po
# Type: ADME, organism-based
# assay-conditions: in vivo
measurement-kind: bioavailability (%)

# molecule, unit-abbreviation, measured-number
data = [
    ("COc1cc(N2CCN(C(C)C)CC2)ccc1Nc1nc(Nc2cccc(F)c2C(=O)O)c2cc[nH]c2n1 [GSK-1819799A]", "%", 0),
    ("COc1cc(N2CCN(C(C)C)CC2)ccc1Nc1nc2[nH]ccc2c2nc3cccc(F)c3c(=O)n12", "%", 81),
]

###

So I've got pIC50 readings for UniProt:P08069, take a look.
pIC50: −log10 of the molar value.

# record-smiles, pIC50
records = [
    ("COc1cc(N2CCN(C(C)C)CC2)ccc1Nc1nc(Nc2ccsc2C(N)=O)c2cc[nH]c2n1", 8.80),
    ("COc1cc(N2CCN(C(C)C)CC2)ccc1Nc1nc(-n2[nH]c(=O)c3ccccc32)c2cc[nH]c2n1", 8.22),
    ("COc1cc(N2CCN(C(C)C)CC2)ccc1Nc1nc2[nH]ccc2c2nc3cccc(F)c3c(=O)n12", 8.10),
    ("COc1cc2c(cc1Nc1nc(Nc3cccc(F)c3C(N)=O)c3cc[nH]c3n1)N(C(=O)CN(C)C)CC2", 9.00),
    ("CNC(=O)c1cscc1Nc1nc(Nc2cc3c(cc2OC)CCN3C(=O)CN(C)C)nc2[nH]ccc12", 8.70),
    ("COc1cc(N2CCC(N3CCN(S(C)(=O)=O)CC3)CC2)ccc1Nc1nc(Nc2ccsc2C(N)=O)c2cc[nH]c2n1", 8.30),
    ("COc1cc2c(cc1Nc1nc(Nc3ccoc3C(N)=O)c3cc[nH]c3n1)N(C(=O)CN(C)C)CCC2", 9.52),
    ("COc1cc(N2CCN(CC(C)C)CC2)ccc1Nc1nc(Nc2ccccc2C#N)c2cc[nH]c2n1", 7.10),
]

###

So I've got pIC50 readings for Insulin-like growth factor 1 receptor (Homo sapiens, UniProt P08069), take a look.
pIC50: −log10 of the molar value.
measurement-kind: pIC50

# record-smiles, measured-number
rows = [
    ("COc1cc(N2CCN(C(C)C)CC2)ccc1Nc1nc(Nc2ccccc2-n2cccn2)c2cc[nH]c2n1", 6.18),
    ("COc1cc2c(cc1Nc1nc(N3CCc4ccccc43)c3cc[nH]c3n1)N(C(=O)CN(C)C)CCC2", 7.82),
    ("COc1cc(N2CCN(C(C)C)CC2)ccc1Nc1nc(Nc2cccc3c2NCC3)c2cc[nH]c2n1", 5.77),
    ("COc1cc(N2CCN(C(C)C)CC2)ccc1Nc1nc(Nc2ccsc2C(N)=O)c2cc[nH]c2n1", 6.97),
    ("COc1cc2c(cc1Nc1nc(Nc3cccnc3C(N)=O)c3cc[nH]c3n1)N(C(=O)CN(C)C)CC2", 7.42),
]

###

So I've got log10 of IC50 readings for Insulin-like growth factor 1 receptor (Homo sapiens, UniProt P08069), take a look.
measurement-kind: log10 of IC50 (log10 of the value in nM)

# record-smiles, measured-number
rows = [
    ("COc1cc2c(cc1Nc1nc(Nc3cccc4c3C(=O)NC4)c3cc[nH]c3n1)N(C(=O)CN(C)C)CC2", 1.20),
    ("COc1cc2c(cc1Nc1nc(Nc3cccnc3C(N)=O)c3cc[nH]c3n1)N(C(=O)CN(C)C)CCC2", 1.26),
    ("COc1cc(N2CCN(C(C)C)CC2)ccc1Nc1nc(Nc2ccc3ncccc3c2)c2cc[nH]c2n1", 2.89),
    ("COc1cc(N2CCC(N3CCN(S(C)(=O)=O)CC3)CC2)ccc1Nc1nc(Nc2ccsc2C(N)=O)c2cc[nH]c2n1", 1.96),
    ("COc1cc(N2CCN(C(C)C)CC2)ccc1Nc1nc(Nc2ccccc2OC)c2cc[nH]c2n1", 2.99),
    ("CNC(=O)c1cscc1Nc1nc(Nc2cc3c(cc2OC)CCN3C(=O)CN(C)C)nc2[nH]ccc12", 1.40),
]
